What follows is a collection of Ki values obtained with human CRTH2 receptor (Homo sapiens (Human)).
Sequence (Q9Y5Y4 whole entry): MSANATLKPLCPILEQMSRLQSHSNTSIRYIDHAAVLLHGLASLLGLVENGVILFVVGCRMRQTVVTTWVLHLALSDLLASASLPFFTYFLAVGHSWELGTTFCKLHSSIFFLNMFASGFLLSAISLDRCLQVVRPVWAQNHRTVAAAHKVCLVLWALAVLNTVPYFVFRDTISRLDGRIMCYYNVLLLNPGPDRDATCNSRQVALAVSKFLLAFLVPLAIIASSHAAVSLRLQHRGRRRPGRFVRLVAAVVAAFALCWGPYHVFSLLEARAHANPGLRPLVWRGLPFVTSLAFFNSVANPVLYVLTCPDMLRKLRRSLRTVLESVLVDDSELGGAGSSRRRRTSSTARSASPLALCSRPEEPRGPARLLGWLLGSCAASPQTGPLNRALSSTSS
One number for each entry, in nM.

Each molecule below has a reported value. Please supply its Ki.
1. CCCc1nn(Cc2ccc(NC(=O)c3ccc(Cl)cc3C)cc2)c(C(C)C)c1CC(=O)O
2. CCCc1nn(Cc2ccc(NC(=O)c3ccc(C(F)(F)F)cc3)cc2)c(C(C)C)c1CC(=O)O
3. CCCc1nn(Cc2ccc(NC(=O)c3ccc4ccccc4c3)cc2)c(C(C)C)c1CC(=O)O
4. CCc1nn(Cc2ccc(OCc3ccc(Cl)c(C(F)(F)F)c3)cc2)c(CC)c1CC(=O)O
5. CCCc1nn(Cc2ccc(NC(=O)c3ccc(C(F)(F)F)cc3C)cc2)c(C(C)C)c1CC(=O)O

1. 1
2. 0.2
3. 0.1
4. 4.8
5. 0.7

Please look at the items below and tell me Ki for each one, in order.
1. CCCc1nn(Cc2ccc(NC(=O)c3ccc(Cl)c(Cl)c3)cc2)c(C(C)C)c1CC(=O)O
2. Cc1nn(Cc2ccc(/C=C/c3ccc(C(F)(F)F)cc3)cc2)c(C)c1CC(=O)O

[0.2, 56.3]
